Target: Histamine H1 receptor (Rattus norvegicus, UniProt P31390)
Sequence (P31390 whole entry): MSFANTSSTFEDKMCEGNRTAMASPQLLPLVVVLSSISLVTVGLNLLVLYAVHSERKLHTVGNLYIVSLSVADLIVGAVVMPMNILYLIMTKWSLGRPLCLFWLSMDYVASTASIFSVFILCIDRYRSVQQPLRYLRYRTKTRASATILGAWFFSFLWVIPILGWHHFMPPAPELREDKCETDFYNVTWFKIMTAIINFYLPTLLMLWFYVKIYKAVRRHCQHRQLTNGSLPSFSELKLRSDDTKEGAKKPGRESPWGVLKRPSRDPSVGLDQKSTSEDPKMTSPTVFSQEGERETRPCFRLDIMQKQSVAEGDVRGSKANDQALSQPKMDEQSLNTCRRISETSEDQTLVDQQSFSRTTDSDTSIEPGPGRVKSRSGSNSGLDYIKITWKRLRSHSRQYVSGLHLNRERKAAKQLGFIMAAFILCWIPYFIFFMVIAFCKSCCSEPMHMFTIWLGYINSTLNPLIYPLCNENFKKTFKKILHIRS
endpoint.name: Ki (nM)
State the answer as a number, implicitly in nM.

Here's what some known entries look like.
Clc1ccc2c(c1)CCc1cccnc1C2N1CCNCC1 (stereo not given) = 6.4
O=CN1CCN(C2c3ccc(Cl)cc3CCc3cccnc32)CC1 (stereo not given) = 290

Request the reported Ki associated with CCC(=O)N1CCN(C2c3ccc(Cl)cc3CCc3cccnc32)CC1 (stereo not given)
2500
